Would you kindly list inhibition for each of these compounds?
Tested on: Influenza A virus (A/Puerto Rico/8/1934(H1N1))
ASSAY_PROTOCOL: Inhibition of Influenza A virus A/Puerto Rico/8/1934(H1N1) neuraminidase at 40 ug/ml using MUNANA as substrate measured after 60 mins by fluorescence assay relative to control
MEASUREMENT_PARAMETERS: dose 40.0 µg/ml
Give bare numbers, in %.

Some compounds with known inhibition results, for comparison:
{"ENTRY_SMILES": "CCOC(=O)Cc1nc(/N=C2\\NC(=O)CS2)sc1C", "inhibition / %": 43.8}
{"ENTRY_SMILES": "CCOC(=O)c1oc(/N=C2\\NC(=O)CS2)nc1C", "inhibition / %": 34.8}

Please go through the list and note inhibition for each compound.
1. CC(=O)c1sc(/N=C2\NC(=O)/C(=C/c3ccc(O)c(O)c3)S2)nc1C
2. COc1cccc(/C=C2\S/C(=N/c3nc(C(C)(C)C)c([N+](=O)[O-])s3)NC2=O)c1O
3. CC(C)(C)c1nc(/N=C2\NC(=O)CS2)sc1-n1ccnc1
4. CCOC(=O)Cc1csc(/N=C2\NC(=O)/C(=C/c3cccc([N+](=O)[O-])c3)S2)n1

[95.8, 57.3, 36.8, 51.2]

Please go through the list and note inhibition for each compound.
1. CCOC(=O)Cc1csc(/N=C2\NC(=O)/C(=C/c3cccc(N)c3)S2)n1
2. CCOC(=O)c1sc(/N=C2\NC(=O)CS2)nc1C
3. CCOC(=O)c1sc(/N=C2\NC(=O)/C(=C/c3ccccc3)S2)nc1C

1: 86.4; 2: 78.4; 3: 72.4

Please go through the list and note inhibition for each compound.
1. CCOC(=O)c1sc(/N=C2\NC(=O)/C(=C/c3ccc(O)c(O)c3)S2)nc1C
2. CCOC(=O)c1sc(NC(=N)N)nc1C

1. 91.3
2. -1.32
